Reported Granzyme B secretion, CD8 T cells, at 0.01 µM by item:
- Experimental Target: T1, IL10Rα/IL2Rγ receptor (human) (UniProt Q13651)
- T1 sequence (looked up) 1: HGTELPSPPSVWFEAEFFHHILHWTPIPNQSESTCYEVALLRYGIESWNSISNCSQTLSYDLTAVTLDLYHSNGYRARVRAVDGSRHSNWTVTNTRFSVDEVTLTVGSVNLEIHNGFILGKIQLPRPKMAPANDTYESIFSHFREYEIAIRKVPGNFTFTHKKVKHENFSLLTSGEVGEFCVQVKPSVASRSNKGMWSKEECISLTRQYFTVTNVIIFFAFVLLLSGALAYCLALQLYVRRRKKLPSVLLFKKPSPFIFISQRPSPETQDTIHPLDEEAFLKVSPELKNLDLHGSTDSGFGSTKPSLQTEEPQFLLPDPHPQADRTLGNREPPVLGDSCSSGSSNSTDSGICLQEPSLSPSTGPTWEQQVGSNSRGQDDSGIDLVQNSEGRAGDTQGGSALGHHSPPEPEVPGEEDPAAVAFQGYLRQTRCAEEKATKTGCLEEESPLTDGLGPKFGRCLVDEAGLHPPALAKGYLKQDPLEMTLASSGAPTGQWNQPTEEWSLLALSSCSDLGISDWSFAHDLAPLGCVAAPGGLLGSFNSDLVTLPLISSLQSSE
- T1 sequence (looked up) 2: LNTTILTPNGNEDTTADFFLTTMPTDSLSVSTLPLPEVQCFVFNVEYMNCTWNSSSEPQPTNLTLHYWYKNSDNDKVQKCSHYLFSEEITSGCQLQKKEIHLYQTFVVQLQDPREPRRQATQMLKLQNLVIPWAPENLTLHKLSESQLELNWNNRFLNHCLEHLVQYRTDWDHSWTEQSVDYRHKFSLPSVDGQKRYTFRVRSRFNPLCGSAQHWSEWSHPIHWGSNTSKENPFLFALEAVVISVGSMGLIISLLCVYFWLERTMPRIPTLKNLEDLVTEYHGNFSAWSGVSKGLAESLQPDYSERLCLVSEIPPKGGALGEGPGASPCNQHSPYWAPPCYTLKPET
- Test Description: cell-based or functional assay
Give just the number in pg/mL; leave the unit off.

The examples below pair each entry with its known result.
{"Binder": "hIL10Ra_VHH14 - hIL2Rg_VHH19, linker GGGSGGGS, tag his (bispecific antibody, not shown: small tags and cut ends) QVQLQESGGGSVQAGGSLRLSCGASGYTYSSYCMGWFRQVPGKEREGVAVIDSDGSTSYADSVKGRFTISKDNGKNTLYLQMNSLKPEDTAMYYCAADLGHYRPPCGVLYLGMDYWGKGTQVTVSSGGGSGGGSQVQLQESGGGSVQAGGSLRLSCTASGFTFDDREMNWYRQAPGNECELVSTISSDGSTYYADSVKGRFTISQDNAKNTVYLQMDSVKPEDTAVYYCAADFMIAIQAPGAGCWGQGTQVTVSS", "Numeric Readout": 47300}
{"Binder": "hIL10Ra_VHH14 - hIL2Rg_VHH19, linker GGGS, tag his (bispecific antibody, not shown: small tags and cut ends) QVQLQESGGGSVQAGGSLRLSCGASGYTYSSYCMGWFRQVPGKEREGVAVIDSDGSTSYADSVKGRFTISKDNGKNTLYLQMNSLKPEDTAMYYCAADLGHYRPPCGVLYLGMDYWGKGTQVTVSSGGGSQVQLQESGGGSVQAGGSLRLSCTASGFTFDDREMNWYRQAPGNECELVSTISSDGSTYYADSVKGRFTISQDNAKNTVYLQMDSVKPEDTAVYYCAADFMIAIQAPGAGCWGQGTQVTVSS", "Numeric Readout": 48100}

Let us examine a further case.
stdin: I would be grateful if you could share the reported Granzyme B secretion, CD8 T cells, at 0.01 µM for hIL10Ra_VHH14 - hIL2Rg_VHH19, linker GS, tag his (bispecific antibody, not shown: small tags and cut ends) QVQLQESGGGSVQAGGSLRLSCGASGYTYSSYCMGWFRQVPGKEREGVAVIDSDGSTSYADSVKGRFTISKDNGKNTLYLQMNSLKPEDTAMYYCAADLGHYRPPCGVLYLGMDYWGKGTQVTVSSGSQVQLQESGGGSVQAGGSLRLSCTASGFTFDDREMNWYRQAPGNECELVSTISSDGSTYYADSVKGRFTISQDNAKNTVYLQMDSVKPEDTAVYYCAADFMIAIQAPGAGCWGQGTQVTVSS .
stdout: 55500
